Sourced from PubChem BioAssay

# measurement-description: small-molecule microarray binders of probe aShh, primary screen, biochemical, biotinylated probe, 635/667 nm fluorescence (AID 1114);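 further: probe is biotin-labelled aShh protein from a stem cell growth factor screen; measures binding of labelled protein to compounds printed on the slide; score merges feature fluorescence at 667 nm with signal-to-noise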
# run-parameters: higher = more signal
property-name: composite z-score
# respond with the number and nothing more

composite z-score reading for `NC(=O)NCC#Cc1ccc2c(c1)[C@]1(C(=O)N2)[C@H](c2ccc(OCCO)cc2)N2[C@H](c3ccccc3)[C@H](c3ccccc3)OC(=O)[C@H]2[C@@H]1C(=O)Nc1nc2ccccc2s1` : 0.046

The molecule `CC(C)NC(=O)[C@@H]1c2ccccc2C(=O)N(Cc2cc(F)cc(C(F)(F)F)c2)[C@H]1c1ccc(CO)cc1` showed composite z-score equal to -0.321

Noted for `C=CCC1(CC=C)C[C@H]2CO[C@H](c3ccc(OC)cc3)N2C1=O` : its composite z-score reads -0.271

The reported value for `CCCNC(=O)[C@@]1(Sc2ccc(C)cc2)CC(=O)N(Cc2cc(C(F)(F)F)cc(C(F)(F)F)c2)[C@@H]1c1ccc(CO)cc1I` in terms of composite z-score is 0.0141

###

Please respond with reported composite z-score for every item in the list.
# measurement-description: COS7 lysate on small-molecule microarray, probe aHis, 635 nm (AID 1123);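 further: z-score combines 667nm fluorescence intensity with signal-to-noise per printed compound spot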
# run-parameters: COS7 cell lysate, fluorescence, higher = more signal
Output: the number by itself.

Reported composite z-score of `COC(=O)C(CC#Cc1ccc2c(c1)[C@]1(C(=O)N2)[C@H](C(=O)O)[C@H]2C(=O)O[C@H](c3ccccc3)[C@H](c3ccccc3)N2[C@@H]1c1ccc(OCCO)cc1)C(=O)OC` : 2.07

Record `NCCCCCCNC(=O)[C@@H]1C[C@@H]2C(=O)N[C@@H](Cc3ccccc3)C(=O)N2[C@@H]1c1ccc(O)cc1` . Reported composite z-score: 0.68

Data point: `CCOC(=O)C[C@H]1[C@H](OC(=O)c2ccc(-c3ccccc3)cc2)[C@@H](NC(=O)C2CCCCC2)c2cc(OCCCO)ccc2N1C(=O)c1ccc2ccccc2n1` ; composite z-score = 0.915

Entry under test: `C[N+](C)(C)CCCCNC(=O)[C@@H]1C[C@@H]2C(=O)NCC(=O)N2[C@@H]1c1cccc(OCCO)c1` . Its composite z-score was 2.15

The reported value for `COc1ccc([Si](C)(C)[C@@H]2[C@@H](CCn3cc(CCO)nn3)O[C@]3(C(=O)N(Cc4ccc(N5C(=O)c6cccc7cccc5c67)cc4)c4ccccc43)[C@H]2C)cc1` in terms of composite z-score is 0.961

Recorded composite z-score (compound `O=C1c2ccccc2[C@@]2(Cc3ccccc3N(CC(F)(F)F)C2=O)[C@H](c2ccc(CO)cc2)N1Cc1ccccc1C(F)(F)F` ): -0.229

Note to self: composite z-score recorded for `O=C(O)[C@H]1C[C@H]2C(=O)NCC(=O)N2[C@H]1c1cccc(OCCO)c1` was 0.787

###

# measurement-description: small-molecule binders of probe aNOTCH2, primary screen, biochemical, small-molecule microarray, 635/667 nm fluorescence (AID 1121);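 further: score merges feature fluorescence read at 667 nm with its signal to noise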
# run-parameters: higher = more signal
Parameter threshold = -0.09. Response is T when composite z-score meets or exceeds it, else F.

Inquiry: Test whether the compound `C=C(CCCC)/C(=C/C[C@@H](OC(=O)c1ccncc1)c1ccc(OCCO)cc1)c1cnc2ccccc2c1` records composite z-score of -0.09 or higher.
Reply text: T

Inquiry: API: above_or_equal(metric=composite z-score, cutoff=-0.09) for item `CCCCC(=C=CC[C@H](O)c1cccc(OCCO)c1)CCO`
Reply text: F

Inquiry: Check this compound for composite z-score at or above -0.09: `CC(C)(C)OC(=O)CC[C@]1(C(=O)NCc2ccccc2)COC(c2ccc(OCCCO)cc2)=N1`
Reply text: T

Inquiry: Determine whether measured composite z-score meets or exceeds -0.09 for `O=C1O[C@H](c2ccccc2)[C@H](c2ccccc2)N2[C@H]1[C@@H](C(=O)Nc1nc3ccccc3s1)[C@]1(C(=O)Nc3ccc(C#CCCO)cc31)[C@H]2c1ccccc1OCCO`
Reply text: T

Inquiry: # bool: composite z-score of CC1CC/C=C\[C@H]2OC34C=CCN(C(C)C)C(=O)[C@H]3N(C(CO)C(C)C)C(=O)[C@@H]4C2C(=O)O1 (stereo partly drawn) >= -0.09
Reply text: F

Inquiry: I'd appreciate it if you could say whether `COC(=O)C(CC#Cc1ccc2c(c1)[C@]1(C(=O)N2)[C@H](C(N)=O)[C@H]2C(=O)O[C@H](c3ccccc3)[C@H](c3ccccc3)N2[C@@H]1c1ccc(O)cc1)C(=O)OC` has composite z-score at least equal to -0.09.
Reply text: T

Inquiry: hey, is composite z-score for this one >= -0.09? `CC(C)(C)OC(=O)CC[C@]1(C(=O)NCc2ccccc2)N=C(c2ccc(OCCCO)cc2)O[C@H]1c1ccccc1N=[N+]=[N-]`
Reply text: T
